B1: library; numbered along this chain (parent)
chain: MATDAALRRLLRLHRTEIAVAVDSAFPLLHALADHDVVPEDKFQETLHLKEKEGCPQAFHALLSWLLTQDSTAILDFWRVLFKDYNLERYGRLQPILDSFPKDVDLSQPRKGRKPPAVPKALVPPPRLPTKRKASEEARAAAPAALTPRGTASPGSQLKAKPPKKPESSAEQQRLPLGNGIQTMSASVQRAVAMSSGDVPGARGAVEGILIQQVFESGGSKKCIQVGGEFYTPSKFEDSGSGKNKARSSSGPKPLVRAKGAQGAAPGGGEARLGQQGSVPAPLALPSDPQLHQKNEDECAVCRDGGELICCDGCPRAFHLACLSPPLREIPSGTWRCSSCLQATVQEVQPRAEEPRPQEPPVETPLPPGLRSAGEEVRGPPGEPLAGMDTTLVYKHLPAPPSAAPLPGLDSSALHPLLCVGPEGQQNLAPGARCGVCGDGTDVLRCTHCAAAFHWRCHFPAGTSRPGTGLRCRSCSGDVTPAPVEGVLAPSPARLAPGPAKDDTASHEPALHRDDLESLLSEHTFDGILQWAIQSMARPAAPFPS

Variants of: B1
Experiment: AIRE transcriptional activation functional score (insulin promoter-GFP; nonsense median 0, synonymous median 1) (normalised score); higher = higher AIRE activity (more reporter activation)
Conditions: with insulin promoter-GFP reporter in HEK293
Cut-off 0.8 on AIRE transcriptional activation functional score, inclusive. At or above means T; below means F.

1. S107C T
2. G438R T
3. C322I F
4. S99K T
5. R9I F
6. H30L F
7. P405E F
8. L97T F
9. G54E F
10. G251F T
11. K42W F
12. H319S T
13. P481V T
14. G227A F
15. Q157L T
16. P200Q T
17. A505Y T
18. P400L F
19. S220R T
20. E229T F
21. A404W T
22. L11P F
23. H448R F
24. E485S T
25. G219L T
26. G421N T
27. P286C F
28. P129A F
29. P483I T
30. P124W T
31. F82C F
32. P176I T
33. A33Y F
34. D34L F
35. P416Q T
36. A510K F
37. Q262E T
38. G374D F
39. P129C T
40. G274I T
41. A451K T

Cited source for all entries: the supplement of paper PMC12667976
